- experimental_protocol: qHTS assay for re-activators of p53 using a Luc reporter: Hit Validation; also: nearly all actives have a fitted effect of over 75% in size
- test_context: p53-responsive luciferase reporter cells, luminescence, H1299 line expressing heat-sensitive Ala138Val p53; series mostly up to 46.1 µM
- Method: The p53 tumor suppressor plays a key role in suppression of tumorigenesis and in human carcinogenesis. It is frequently found inactivated in human cancers, mainly by point mutation. […] In order to find activators to reactivate this important protein, a cell-based screen for p53-dependent luciferase-reporter expression was developed. […] At assay temperate, 37 deg C, basal reporter expression is very low and after the addition of detection reagent, a luminescent read-out is carried out. […]
Results filed as inconclusive are left out. Calls of active or inactive are those of the source. Calls follow the shape of the dose curve; as a rule, active = well fitted activation curve with a large enough effect; inconclusive = small, poorly fitted or top-dose-only effect; inactive = no such curve, though single readings can be large or run the other way.
Outcomes: yes (1) for active, no (0) for inactive

compound	class_name
Cc1ccc(NC(=O)C2CCCO2)cc1[N+](=O)[O-] (stereo unspecified)	no (0)
Cc1cccc(-n2c(C)cc(C(=O)NC3CCCCC3)c2C)c1	yes (1)
COCCSc1ccccc1C(=O)Nc1cc(C)ccn1	no (0)
CN(Cc1ccccc1)C(=O)CNC(=O)Cn1cnc2ccccc2c1=O	no (0)
Nc1ccc(-c2cnc(-c3ccc(N)cc3)nc2)cc1	yes (1)
C=CCSC1=N/C(=C\c2cc(OCC)c(OC(C)=O)c([N+](=O)[O-])c2)C(=O)S1	no (0)
O=C(CSc1nc2ccccc2c(=O)[nH]1)c1ccc(O)c(O)c1	no (0)
COc1nnc(-c2ccc(C)c(S(=O)(=O)N(C)C)c2)c2ccccc12	no (0)
CC1CC1C(=O)Nc1nc2ccc(S(C)(=O)=O)cc2s1 (stereo unspecified)	no (0)
COc1ccc2cc(C3(C)NC(=O)N(CC(=O)Nc4c(C)n(C)n(-c5ccccc5)c4=O)C3=O)ccc2c1 (stereo unspecified)	no (0)
Cc1ccc(NC(=O)c2ccc3nc[nH]c3c2)cc1C	yes (1)
COc1ccc(CCC(=O)Nc2ccc(-c3noc(-c4ccc(OC)c(OC)c4)n3)cc2)cc1	no (0)
C=Cc1ccc(Cn2c(=O)n(CCCOC)c(=O)c3sccc32)cc1	no (0)
Cc1cc2[nH]c3ccccc3c2c(C)n1	no (0)
Cc1ccc(NC(=S)NC(=O)c2cccs2)cc1F	yes (1)
Cc1ccc2nc(SCn3nnc4ccccc4c3=O)[nH]c2c1	yes (1)
CCN1CCN(CC(=O)Nc2nc3ccc(C)cc3s2)CC1	no (0)
Cc1ccccc1C(=O)Nc1ccc(Br)cn1	yes (1)
CC(Sc1nc(N)cc(=O)[nH]1)C(=O)NNC(=O)c1cccc(Cl)c1 (stereo unspecified)	no (0)
Cc1cnc(C(=O)OCC(=O)c2csc(N3CCCCC3)n2)cn1	no (0)
N=C1C(c2nc3ccccc3s2)=C(O)CN1Cc1ccccc1	yes (1)
O=C(CC(Nc1ccc(F)cc1)C(=O)OCC(=O)c1cccs1)c1ccccc1 (stereo unspecified)	no (0)
O=C(Nc1ccc(Cl)cn1)C1CCN(c2ncnc3c2nc2n3CCCCC2)CC1	no (0)
O=C(O)/C=C/c1nc(-c2ccccc2)n2ccccc12	no (0)
Cc1cc(C(=O)NC2CCCCC2)c(C)n1-c1ccc(F)cc1	yes (1)
CCCN(C(=O)c1cccc(S(=O)(=O)N2CCCc3ccccc32)c1)C1CCS(=O)(=O)C1 (stereo unspecified)	no (0)
CCOC(=O)c1cc(-c2ccccc2)sc1NC(=O)CC	no (0)
Oc1c(CN2CCOCC2)cc(COCc2ccccc2)c2cccnc12	no (0)
O=C(CC1SC(N2CCCC2)=NC1=O)Nc1ccc(C(=O)Nc2ncccc2O)cc1 (stereo unspecified)	yes (1)
O=C(c1ccccc1)n1c(=S)nc2ccccn21	yes (1)
O=C(NCc1ccc(-c2nc3ccccc3s2)cc1)c1cc2ccccc2o1	no (0)
CS(=O)(=O)N1CCC(C(=O)Nc2cc(Cl)c(Cl)cc2Cl)CC1	no (0)
COc1ccc(CCNC2CCC(c3ccccc3)CC2)cc1 (stereo unspecified)	no (0)
CC(C)c1ccc(NC(=O)c2snc3ccc(Cl)cc23)cc1	yes (1)
CN(C(=O)CSc1nnc(-c2ccco2)o1)C1CCCCC1	no (0)
O=C(Cn1cc2c(n1)CCCCC2)NC1CCCCCC1	no (0)
Fc1cccc2sc(Nc3nnc(-c4ccco4)o3)nc12	yes (1)
CCc1nnc(NC(=O)CCC(=O)Nc2ccccc2)s1	no (0)
C/C(=N\NC(=O)c1cc(C)nc2ccccc12)c1ccccn1	yes (1)
O=C(c1cccc(S(=O)(=O)NCc2ccc3c(c2)OCO3)c1)N1CCCC1	no (0)
O=C(COC(=O)CNC(=O)c1ccc([N+](=O)[O-])o1)Nc1ncc(C(F)(F)F)cc1Cl	no (0)
Cc1cccc(C)c1Nc1c(-c2ccccn2)nc2ccccn12	no (0)
COc1cc(C(=O)NCC(=O)Nc2c(C)cccc2C)ccc1OCc1ccccc1	no (0)
O=[N+]([O-])c1ccc(/C=N/NC(=S)Nc2ccccc2F)o1	no (0)
COc1ccc(-c2csc(NCc3ccco3)n2)cc1C	yes (1)
O=C(O)C1C2C=CC(C2)C1C(=O)Nc1ccccc1Br (stereo unspecified)	no (0)

----------
- experimental_protocol: qHTS assay for re-activators of p53 using a Luc reporter: Hit Validation; also: nearly all actives have a fitted effect of over 75% in size; also: potency is read from the fitted curve at half-maximal effect
- test_context: p53-responsive luciferase reporter cells, luminescence, H1299 line expressing heat-sensitive Ala138Val p53; series mostly up to 46.1 µM
Results filed as inconclusive are left out. The source made the active and inactive calls. Calls come from the whole dose curve; as a rule, active = well fitted activation curve with a large enough effect; inconclusive = small, poorly fitted or top-dose-only effect; inactive = no such curve, though single readings can be large or run the other way.

compound	Potency
CC(C)(C)c1ccc(/C=C2\SC(=O)N(CCNC(=O)c3cccc(S(=O)(=O)N4CCOCC4)c3)C2=O)cc1	1.84 µM (active)
COc1ccccc1NC(CC(=O)c1ccccc1)C(=O)OCC(=O)c1ccc(C)cc1 (stereo unspecified)	0.206 µM (active)
COc1cccc(/C=N/NC(=O)CCc2n[nH]c(=O)[nH]c2=O)c1O	inactive
COc1ccc(CC(=O)Nc2ccc(C(=O)Nc3ccccc3C(=O)O)cc2)cc1OC	inactive
COCCCN=C(c1ccco1)n1c(=S)nc(-c2ccco2)n(CCCOC)c1=S	inactive
C=C[C@@H]1c2cc(C)ccc2N(S(=O)(=O)c2ccc(C)cc2)[C@H](c2ccccc2C(F)(F)F)C1(C#N)C#N	inactive
CN(C)c1ccc(NC(=O)CCCc2ccccc2)cc1	1.46 µM (active)
Cc1ccsc1/C=N/Nc1nc2ccccc2[nH]1	1.3 µM (active)
CCOc1ccc(/C=N/NC(=O)CN2CCSCC2)cc1	inactive
Cc1ccn2c(c1)nc(=S)n2C(=O)c1ccccc1	0.731 µM (active)
Clc1ccc(OCc2nc(-c3ccccn3)n[nH]2)cc1	inactive
Clc1cccc(N/N=C(\Cc2nc3ccccc3[nH]2)c2ccccc2)c1	inactive
Cc1cc(Br)c(S(=O)(=O)NCCN2CCOCC2)cc1C	inactive
O=C(COC(=O)c1cc2ccccc2oc1=O)Nc1cccc(S(=O)(=O)N2CCCCCC2)c1	inactive
CC(=O)c1cc2c(C)c(C(=O)c3ccccc3)oc2cc1O	0.411 µM (active)
Cc1cccc(-n2c(C)cc(/C=N\NC(=O)c3cccs3)c2C)c1	1.16 µM (active)
C/C(=N\NC(=O)c1ccc(F)cc1)c1ccccn1	2.06 µM (active)
CCOC(=O)NC1(Nc2ccc(C)cc2)Oc2ccccc2O1	16.4 µM (active)
Fc1ccccc1/C=C/c1ccc2ccccc2n1	0.731 µM (active)
Cn1c(=N)n(CC(=O)c2ccc(Cl)c(Cl)c2)c2ccccc21	0.58 µM (active)
O=C(c1ccco1)n1c(=S)nc2ccccn21	7.31 µM (active)
OCc1cc(Br)ccc1OCc1nc2ccccc2s1	2.91 µM (active)
C/C(=N\N=c1/scc(C)n1Cc1ccco1)c1cccc([N+](=O)[O-])c1	inactive
Cc1cccc(NC(=O)c2ccccn2)c1C	14.6 µM (active)
c1ccc(-c2ccc(-c3ccccn3)nn2)nc1	0.082 µM (active)
Cc1ccc(C(=O)CN2C(=O)NC3(CCCCC3C)C2=O)s1 (stereo unspecified)	inactive
COC(=O)c1ccc(CSc2nnc(-c3c[nH]c4ccccc34)n2-c2ccccc2)cc1	inactive
O=C(Nc1ccc(-c2nc3cc(Cl)ccc3c(=O)o2)cc1)c1ccco1	inactive
CN(C)CCN(CC1CCCN(Cc2ccccc2F)C1)C(=O)c1ccc(F)cc1 (stereo unspecified)	inactive
O=S(=O)(N/N=C/c1ccccc1OCc1ccc(Cl)cc1)c1ccccc1	inactive
O=C(Nc1nnc(-c2cccs2)o1)c1cccc(Oc2ccccc2)c1	inactive
COc1cccc(/C=N/Nc2ccc([N+](=O)[O-])cn2)c1O	9.2 µM (active)
O=C(N/N=C/c1ccccc1O)C1CC(=O)N(c2ccc(Cl)cc2)C1 (stereo unspecified)	inactive
Cc1cc(C)cc(NC(=O)CSc2nnc(-c3ccccc3C)o2)c1	inactive
Cc1noc(C)c1C(=O)OCC(=O)N1CCc2ccccc21	inactive
CCc1ccc2oc(-c3ccc(N)cc3)nc2c1	0.092 µM (active)
COc1ccnc(CSC(N)=Nc2ccccc2OC)c1	inactive
CN(C)c1ccc(/C=N/N=C/c2ccccc2O)cc1	0.461 µM (active)
COc1cccc(N(C(=O)c2nc3nccc(C)n3n2)c2nc3ccccc3s2)c1	7.31 µM (active)
CCCCCCC[C@@H](C/C=C/CCC(=O)N(C)C/C(=C/Cl)C/C(=C\C(=O)N1CC(OC)=CC1=O)OC)OC	5.8 µM (active)
Cc1ccc2nc(C(F)(F)F)c(C#N)c(N)c2c1	inactive
CC(=O)Nc1ccc(SCC(=O)c2cc(C)n(-c3ccccc3)c2C)cc1	5.8 µM (active)
O=C(NNC(=S)NC1CCCCC1)c1cccs1	inactive
Cc1csc(NC(=O)/C=C/c2ccco2)n1	10.3 µM (active)
CC(C)NC(=S)N1CCN(S(C)(=O)=O)CC1	inactive
COc1cc(N/N=C/c2ccccc2O)ncn1	25.9 µM (active)
